experimentalSystem: Metabotropic glutamate receptor 8 (Rattus norvegicus) (UniProt P70579)
Sequence (P70579 whole entry, looked up): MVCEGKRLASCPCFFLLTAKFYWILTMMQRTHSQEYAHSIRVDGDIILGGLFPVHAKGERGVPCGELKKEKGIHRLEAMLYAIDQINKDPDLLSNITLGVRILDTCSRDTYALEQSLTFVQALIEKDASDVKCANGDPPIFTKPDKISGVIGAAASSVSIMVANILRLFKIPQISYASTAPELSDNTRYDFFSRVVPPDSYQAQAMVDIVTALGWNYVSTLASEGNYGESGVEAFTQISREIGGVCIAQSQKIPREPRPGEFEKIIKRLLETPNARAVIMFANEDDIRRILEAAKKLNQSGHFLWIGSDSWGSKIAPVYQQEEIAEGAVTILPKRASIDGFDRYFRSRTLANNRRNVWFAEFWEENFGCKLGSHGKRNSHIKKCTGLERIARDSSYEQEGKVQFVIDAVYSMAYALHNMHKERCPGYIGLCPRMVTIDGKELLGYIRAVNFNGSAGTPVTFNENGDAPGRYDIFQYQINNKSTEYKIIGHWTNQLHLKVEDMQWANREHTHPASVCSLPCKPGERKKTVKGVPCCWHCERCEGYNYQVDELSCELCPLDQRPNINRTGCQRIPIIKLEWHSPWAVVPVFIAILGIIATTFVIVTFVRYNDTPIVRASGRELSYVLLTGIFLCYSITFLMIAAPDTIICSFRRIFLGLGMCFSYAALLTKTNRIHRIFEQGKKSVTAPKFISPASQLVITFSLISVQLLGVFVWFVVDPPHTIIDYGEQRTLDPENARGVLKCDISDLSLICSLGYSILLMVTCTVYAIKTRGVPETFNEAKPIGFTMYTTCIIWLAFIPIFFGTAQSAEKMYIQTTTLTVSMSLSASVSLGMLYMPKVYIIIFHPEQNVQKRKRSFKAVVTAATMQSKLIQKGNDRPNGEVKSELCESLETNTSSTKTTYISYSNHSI
experimentDescription: mGluR8 Gi/Go-coupled signaling modulation – cell-based, rat, thallium flux, HTS, primary screen (AID 488969)
assayConditions: HEK293 rat mGluR8, GIRK (G protein-gated inwardly rectifying potassium channel) thallium flux, FluoZin2; at 10 µM; stronger effect = higher value; submaximal glutamate (EC20) added with thallium
In all, about 110,000 compounds were measured (“z-score”: median about -0.1, highest 2% from about 2 on). The full list was thinned out, with the highest values kept by preference.
Here the recorded z-score is given for each entry.
Lab note: jot the number down without any unit.

CC12CC(NC(=O)N1c1cccc(C(=O)N3CCN(c4ccccc4)CC3)c1)c1ccccc1O2 (stereo not drawn) ... -0.354
COC(=O)c1ccc(CSc2n[nH]c(C)n2)o1 ... -0.0591
CN(C)CCNC(=O)c1cc2c(=O)n(C)c3ccccc3c2n1C ... 0.703
COCCCNC(=O)c1cc2c(=O)n(C)c3ccccc3c2n1C ... -0.127
C=CCNCc1cccn1-c1sc2c(c1C#N)CCCC2 ... 2.43

Look up z-score for this compound: `CCN(CC)CCNC(=O)c1cc2c(=O)n(C)c3ccccc3c2n1C` 1.25

// next record `Nc1n[nH]c(-c2ccccc2)n1` 0.189

Now the same for `COCCNC(=O)c1cc2c(=O)n(C)c3ccccc3c2n1C` -0.524

Now the compound `Cc1ccc(S(=O)(=O)Nc2nc3ccccc3s2)cc1` -0.644

Also, `COc1ccc2c(c1)c1ncn(CCN3CCNCC3)c(=O)c1n2C` please. -0.141

Field entry: `Cc1cccc(N2CCN(C(=O)Cn3cnc4c3c(=O)n(C)c(=O)n4C)CC2)c1C` -0.973

Same thing, different compound: `CCCN(CCC)CCCNC(=O)c1cc2c(=O)n(C)c3ccccc3c2n1C` 4

Same question, COC(=O)CSC1=C(C#N)C(c2sccc2C)CC(=O)N1 (stereo not drawn) this time 0.174

Again, but for O=C1NC(=O)[C@@H]2C3c4ccccc4C=CN3[C@H](C(=O)c3cccs3)[C@H]12 (stereo partly drawn) -0.687
